Every entry's value here was drawn from patent US9120851B2.

RU bound at 50 nM mAb or Fab values by entry
TARGET: T1, hANGPTL4(26-406)-His (Homo sapiens, UniProt Q9BY76)
T1 construct: purchased R&D Systems
T1 sequence (Q9BY76 26-406): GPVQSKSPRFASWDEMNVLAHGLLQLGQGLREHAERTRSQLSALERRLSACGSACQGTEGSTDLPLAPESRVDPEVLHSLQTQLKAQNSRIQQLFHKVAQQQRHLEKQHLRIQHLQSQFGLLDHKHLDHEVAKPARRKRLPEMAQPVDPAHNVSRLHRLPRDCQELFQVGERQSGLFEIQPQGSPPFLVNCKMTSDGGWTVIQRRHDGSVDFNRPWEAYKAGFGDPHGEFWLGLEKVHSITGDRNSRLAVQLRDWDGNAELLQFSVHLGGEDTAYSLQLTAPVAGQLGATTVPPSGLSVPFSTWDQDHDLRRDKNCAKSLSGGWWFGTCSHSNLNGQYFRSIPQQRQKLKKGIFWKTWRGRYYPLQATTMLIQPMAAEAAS
PROTOCOL DESCRIPTION: BIACORE, full mAb or Fab over amino-coupled hANGPTL4(26-406)-His
Format: binding
CONDITION LABEL: pH 5.75, 25° C., amino-coupled 450 RU
MEASUREMENT LABEL: RU bound at 50 nM mAb or Fab

{"columns": ["MOLECULE", "MEASUREMENT LABEL", "OBSERVED VALUE"],
 "data": [
  ["H1H284P: anti-hANGPTL4 antibody, hIgG1 isotype, HCVR/LCVR SEQ ID NOs 90/92 (antibody, V domains shown) VH: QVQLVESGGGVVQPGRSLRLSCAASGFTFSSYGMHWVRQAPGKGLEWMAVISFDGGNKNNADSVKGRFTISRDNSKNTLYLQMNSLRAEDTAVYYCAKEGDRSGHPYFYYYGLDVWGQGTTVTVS VL: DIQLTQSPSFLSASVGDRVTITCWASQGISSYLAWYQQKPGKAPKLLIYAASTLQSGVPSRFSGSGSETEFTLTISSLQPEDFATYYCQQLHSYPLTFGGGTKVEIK", "RU bound at 50 nM mAb or Fab", 101],
  ["H1H284P Fab: Fab fragment of H1H284P prepared by papain digestion (antibody, V domains shown) VH: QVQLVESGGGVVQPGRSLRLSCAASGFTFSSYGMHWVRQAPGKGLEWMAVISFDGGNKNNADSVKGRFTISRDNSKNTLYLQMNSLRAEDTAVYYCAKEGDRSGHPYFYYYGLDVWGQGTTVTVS VL: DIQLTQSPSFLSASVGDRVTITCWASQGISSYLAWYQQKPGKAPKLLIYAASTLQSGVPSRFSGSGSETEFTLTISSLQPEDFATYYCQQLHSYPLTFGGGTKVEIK", "RU bound at 50 nM mAb or Fab", 33],
  ["H1H268P: anti-hANGPTL4 antibody, hIgG1 isotype, HCVR/LCVR SEQ ID NOs 42/44 (antibody, V domains shown) VH: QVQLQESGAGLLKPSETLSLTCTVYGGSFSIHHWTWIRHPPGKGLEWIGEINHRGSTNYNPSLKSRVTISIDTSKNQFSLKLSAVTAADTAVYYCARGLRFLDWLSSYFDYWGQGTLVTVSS VL: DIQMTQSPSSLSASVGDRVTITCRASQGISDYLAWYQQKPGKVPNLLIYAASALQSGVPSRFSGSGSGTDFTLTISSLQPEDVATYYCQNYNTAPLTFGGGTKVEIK", "RU bound at 50 nM mAb or Fab", 45],
  ["H1H268P Fab: Fab fragment of H1H268P prepared by papain digestion (antibody, V domains shown) VH: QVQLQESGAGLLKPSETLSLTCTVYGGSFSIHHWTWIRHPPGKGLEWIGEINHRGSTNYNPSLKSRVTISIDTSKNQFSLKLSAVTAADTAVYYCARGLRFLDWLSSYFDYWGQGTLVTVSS VL: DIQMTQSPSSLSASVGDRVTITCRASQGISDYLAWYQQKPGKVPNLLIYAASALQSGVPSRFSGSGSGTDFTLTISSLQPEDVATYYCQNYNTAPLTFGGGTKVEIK", "RU bound at 50 nM mAb or Fab", 10]
]}
